Measured Fold change in fluorescence (DCFDA) values are reported for all entries that follow.
system: MES-SA cells; experiment: ROS determination with DCFDA, MES-SA; assay type: cell-based, human; conditions: 12.5 µM, 2 h, presence of 5 mM NAC (brackets)

Q: # lookup: Fold change in fluorescence (DCFDA) of Oc1ccc(Cl)c2cccnc12
A: 1.418± 0.24

Q: Same question for Oc1c(CN2CCCCC2)cc(Cl)c2cccnc12 please.
A: 1.542± 0.35

Q: Same question for Oc1c(CN2CCOCC2)cc(Cl)c2cccnc12 please.
A: 1.263± 0.62

Q: Same question for Oc1c(CN2CCOCC2)ccc2cccnc12 please.
A: 0.930± 0.16

Q: Same question for Oc1cccc2cccnc12 [Compound Q-1, 8-Hydroxyquinoline] please.
A: 1.148± 0.32

Q: Same question for Oc1c(CNCc2ccccc2F)cc(Cl)c2cccnc12 please.
A: 1.033± 0.21

Q: Same question for Oc1c(CN2CCCCC2)ccc2cccnc12 please.
A: 1.080± 0.27
